Hello, the source for this data is PubChem BioAssay AID652032, in case you need it.

# system_under_test: Kappa-type opioid receptor (Homo sapiens)
# assay_text: OPRK1 antagonists, late-stage follow-up, cell-based, fluorescence, dose response (AID 652032)
# condition_context: OPRK1-expressing cells, fluorescence antagonist read-out
I'd appreciate it if you could supply pIC50 values for the items below.
One number for each entry, as −log10 of the molar value.

In the examples that follow, each entry is paired with its recorded pIC50.
* COC(=O)c1cc(Br)cnc1N1CCC(NCCO)CC1 | 5.04
* COC(=O)c1cc(I)cnc1N1CCC(NC2CCCCC2)CC1 | 7.10
* COC(=O)c1cc(NC(C)=O)cnc1N1CCC(NC2CCCCC2)CC1 | 6.20
* O=C(O)c1cc(Br)cnc1N1CCC(NC2CCCCC2)CC1 | 5.28

Give pIC50 for all molecules that follow.
1. COC(=O)c1cc(Br)cnc1N1CCC(NC2CCC(C)CC2)CC1 (stereo unspecified)
2. COC(=O)c1cc(Br)cnc1N1CCC(N[C@@H]2CCCC[C@H]2O)CC1

Response:
6.27
6.64

###

# system_under_test: Kappa-type opioid receptor (Homo sapiens) (UniProt P41145)
# Sequence (P41145 whole entry, looked up): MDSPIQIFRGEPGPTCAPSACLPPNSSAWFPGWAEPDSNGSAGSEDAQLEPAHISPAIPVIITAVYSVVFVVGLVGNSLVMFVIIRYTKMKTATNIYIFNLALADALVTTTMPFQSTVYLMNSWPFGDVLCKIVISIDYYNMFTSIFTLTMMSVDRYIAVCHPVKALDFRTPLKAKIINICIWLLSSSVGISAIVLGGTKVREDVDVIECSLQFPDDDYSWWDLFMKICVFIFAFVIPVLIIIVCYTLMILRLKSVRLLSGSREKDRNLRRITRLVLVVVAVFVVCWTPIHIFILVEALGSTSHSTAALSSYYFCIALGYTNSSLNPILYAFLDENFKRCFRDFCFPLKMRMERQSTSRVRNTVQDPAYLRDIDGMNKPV
# assay_text: OPRK1 antagonists, late-stage follow-up, cell-based, fluorescence, dose response (AID 652032)
# condition_context: OPRK1-expressing cells, fluorescence antagonist read-out
test_readout: pIC50
Give bare numbers, as −log10 of the molar value.

In the examples that follow, each entry is paired with its recorded pIC50.
• COC(=O)c1cc(Cl)cnc1N1CCC(NC2CCCCC2)CC1 = 6.80
• COC(=O)c1cc(Br)cnc1N1CCC(NC2CCCCC2OC)CC1 (stereo unspecified) = 6.57
• COC(=O)c1cccnc1N1CCC(NC2CCCCC2)C(O)C1 (stereo unspecified) = 5.66
• CCOC(=O)c1cc(C(=O)OC)c(C)nc1N1CCC(NC2CCCCC2)CC1 = 5.59
• COC(=O)c1cc(Br)cnc1N1CCC(NC2CCCCCC2)CC1 = 6.96

Give pIC50 for all compounds that follow.
1. COC(=O)c1cc(F)cnc1N1CCC(NC2CCCCC2)CC1
2. COC(=O)c1cc(Br)cnc1N1CCC(N)C(O)C1 (stereo unspecified)

Response:
[5.18, 5.23]

Give pIC50 for all compounds that follow.
1. COC(=O)c1cc(Br)cnc1N1CCC(N(C)C2CCCCC2)CC1
2. COC(=O)c1cc(Br)cnc1N1CCC(NC2CCCCC2)CC1
3. COC(=O)c1cc(Br)cnc1N1CCC(N[C@H](C)C2CCCCC2)CC1

Response:
[5.57, 6.88, 5.17]

Query: Which pIC50 reading was recorded for the compound COC(=O)c1cc(Br)cnc1N1CCC(NC2CCCC(O)C2)CC1 (stereo unspecified) ?
Response: 6.19
